# PROTOCOL TEXT: Half life in Sprague-Dawley rat at 50 mg/kg, ip measured afer 24 hrs by LC-MS/MS analysis
# Assay type: ADME, organism-based
# EXPERIMENTAL PARAMETERS: in vivo
MEASURE: half-life (h)
The figure you give is taken to be in h; do not add the unit.

Need half-life of `COc1ccc(C(=O)Nc2cc(-c3ccnc(N4CCC(O)CC4)c3)ccn2)cc1` , thanks.
1.67

====

# PROTOCOL TEXT: AUC (0 to t) in Sprague-Dawley rat at 50 mg/kg, ip measured afer 24 hrs by LC-MS/MS analysis
# Type: ADME, organism-based
# EXPERIMENTAL PARAMETERS: in vivo
MEASURE: AUC(0-t) at 24 h (ng·h/mL)
The figure you give is taken to be in ng·h/mL; do not add the unit.

Need AUC(0-t) at 24 h of `COc1ccc(C(=O)Nc2cc(-c3ccnc(N4CCC(O)CC4)c3)ccn2)cc1` , thanks.
17000
